# IC50 against BRD3 (Homo sapiens (Human)), merged from multiple literature sources
attribute.measured: IC50 (nM)

{"compound": "Cc1nn(C2CC2)c2c1C(c1ccc(Cl)cc1)N(c1cc(C)c3nnc(C(F)F)n3n1)C2=O (stereo not drawn)", "assay.system": "BRD3 (Homo sapiens (Human))", "attribute.measured": "IC50", "qualifier": "=", "experimental.value": 16}
{"compound": "COc1ncccc1-c1nn(C)c2c1C(=O)N(c1cc(C)c3nnc(C)n3c1)C2c1ccc(Cl)cc1 (racemic)", "assay.system": "BRD3 (Homo sapiens (Human))", "attribute.measured": "IC50", "qualifier": "=", "experimental.value": 31}
{"compound": "CCn1nc(C)c2c1C(=O)N(c1cc(C)c3nnc(C)n3c1)C2c1ccc(Cl)cc1 (stereo not drawn)", "assay.system": "BRD3 (Homo sapiens (Human))", "attribute.measured": "IC50", "qualifier": "=", "experimental.value": 32}
{"compound": "CC(=O)N1CC(n2cc(C3CC3)c3c2C(c2ccc(Cl)cc2)N(c2cc(C)c4nnc(C)n4c2)C3=O)C1 (stereo not drawn)", "assay.system": "BRD3 (Homo sapiens (Human))", "attribute.measured": "IC50", "qualifier": "<", "experimental.value": 11}
{"compound": "COc1ncc(-n2nc3c(c2C(C)C)[C@@H](c2ccc(Cl)cc2)N(c2cc(C)c4onc(C)c4c2)C3=O)c(OC)n1", "assay.system": "BRD3 (Homo sapiens (Human))", "attribute.measured": "IC50", "qualifier": "=", "experimental.value": 72}
{"compound": "Cc1cn(C)c2c1C(=O)N(c1cc(C)c3nnc(C)n3c1)C2c1ccc(Cl)cc1 (stereo not drawn)", "assay.system": "BRD3 (Homo sapiens (Human))", "attribute.measured": "IC50", "qualifier": "=", "experimental.value": 35}
{"compound": "Cc1cc(N2C(=O)c3cc(-c4ccc(N(C)C)nc4)n(C)c3C2c2ccc(Cl)cc2)cn(C)c1=O (stereo not drawn)", "assay.system": "BRD3 (Homo sapiens (Human))", "attribute.measured": "IC50", "qualifier": "=", "experimental.value": 42}
{"compound": "Cc1cc(N2C(=O)c3cc(-c4ccnc(C(F)(F)F)n4)n(C)c3C2c2ccc(Cl)cc2)cn(C)c1=O (stereo not drawn)", "assay.system": "BRD3 (Homo sapiens (Human))", "attribute.measured": "IC50", "qualifier": "=", "experimental.value": 75}
{"compound": "COc1ncc(-n2nc(C)c3c2C(=O)N(c2cc(C)c(=O)n(C)c2)[C@H]3c2ccc(Cl)cc2)c(OC)n1", "assay.system": "BRD3 (Homo sapiens (Human))", "attribute.measured": "IC50", "qualifier": "=", "experimental.value": 7600}
{"compound": "Cc1cc(N2C(=O)c3nn(C(=O)N(C)C)c(C)c3[C@H]2c2ccc(Cl)cc2)cn2c(C)nnc12", "assay.system": "BRD3 (Homo sapiens (Human))", "attribute.measured": "IC50", "qualifier": "=", "experimental.value": 120}
{"compound": "COC(=O)N1CC=C(c2nc3c(n2C(C)C)C(c2ccc(Cl)cc2)N(c2cc(C)c4nnc(C)n4c2)C3=O)CC1 (stereo not drawn)", "assay.system": "BRD3 (Homo sapiens (Human))", "attribute.measured": "IC50", "qualifier": "=", "experimental.value": 27.5}
{"compound": "COc1ncc(-c2cc3c(n2C)[C@@H](c2ccc(Cl)cc2)N(c2cc(C)c(=O)n(C)c2)C3=O)cn1", "assay.system": "BRD3 (Homo sapiens (Human))", "attribute.measured": "IC50", "qualifier": "=", "experimental.value": 22}
{"compound": "CCn1nc2c(c1C)C(c1ccc(Cl)cc1F)N(c1cc(C)c3nnc(C)n3c1)C2=O (stereo not drawn)", "assay.system": "BRD3 (Homo sapiens (Human))", "attribute.measured": "IC50", "qualifier": "=", "experimental.value": 61}
{"compound": "CC(C)n1cc2c(n1)C(=O)N(c1cc(Cl)c(=O)n(C)c1)C2c1ccc(Cl)cc1 (stereo not drawn)", "assay.system": "BRD3 (Homo sapiens (Human))", "attribute.measured": "IC50", "qualifier": "=", "experimental.value": 89}
{"compound": "Cc1cc(N2C(=O)c3c(c(C4CC4)nn3-c3ccnn3C)C2c2ccc(Cl)cc2)cn2c(C)nnc12 (stereo not drawn)", "assay.system": "BRD3 (Homo sapiens (Human))", "attribute.measured": "IC50", "qualifier": "=", "experimental.value": 38}
{"compound": "Cc1cc(N2C(=O)c3nc(C4CCOCC4)n(C4COC4)c3C2c2ccc(Cl)cc2)cc2c1nnn2C (stereo not drawn)", "assay.system": "BRD3 (Homo sapiens (Human))", "attribute.measured": "IC50", "qualifier": "=", "experimental.value": 17}
{"compound": "CCOC(=O)N1CC(n2nc(C)c3c2C(=O)N(c2cc(C)c4nnc(C)n4c2)C3c2ccc(Cl)cc2)C1 (stereo not drawn)", "assay.system": "BRD3 (Homo sapiens (Human))", "attribute.measured": "IC50", "qualifier": "=", "experimental.value": 77}
{"compound": "Cc1cc(N2C(=O)c3nc(C4=CCOCC4)n(C(C)C)c3[C@H]2c2ccc(Cl)cc2)nn2c(C)nnc12", "assay.system": "BRD3 (Homo sapiens (Human))", "attribute.measured": "IC50", "qualifier": "<", "experimental.value": 11}
{"compound": "COc1ncc(-c2nc3c(n2C(C)C)C(c2ccc(Cl)cc2)N(c2cc(C)c4nnc(C)n4c2)C3=O)c(OC)n1 (stereo not drawn)", "assay.system": "BRD3 (Homo sapiens (Human))", "attribute.measured": "IC50", "qualifier": "=", "experimental.value": 59}
{"compound": "Cc1c2c(nn1C1CC1)C(=O)N(c1cc(Cl)c(=O)n(C)c1)[C@@H]2c1ccc(Cl)cc1", "assay.system": "BRD3 (Homo sapiens (Human))", "attribute.measured": "IC50", "qualifier": "=", "experimental.value": 65}
{"compound": "Cc1nn(C(C)C)c2c1[C@@H](c1ccc(Cl)cc1F)N(c1cc(C)c3nnc(C)n3c1)C2=O", "assay.system": "BRD3 (Homo sapiens (Human))", "attribute.measured": "IC50", "qualifier": "=", "experimental.value": 33}
{"compound": "Cc1cc(N2C(=O)c3nc(C4=CCN(C)CC4)n(C(C)C)c3C2c2ccc(Cl)cc2)cn2c(C)nnc12 (stereo not drawn)", "assay.system": "BRD3 (Homo sapiens (Human))", "attribute.measured": "IC50", "qualifier": "=", "experimental.value": 23.5}
{"compound": "Cc1cc(N2C(=O)c3nc(C4=CCN(C(=O)OCC(C)C)CC4)n(C(C)C)c3C2c2ccc(Cl)cc2)cn2c(C)nnc12 (stereo not drawn)", "assay.system": "BRD3 (Homo sapiens (Human))", "attribute.measured": "IC50", "qualifier": "=", "experimental.value": 13}
{"compound": "Cc1c2c(nn1C)C(=O)N(c1cc(F)c(=O)n(C)c1)C2c1ccc(Cl)cc1 (stereo not drawn)", "assay.system": "BRD3 (Homo sapiens (Human))", "attribute.measured": "IC50", "qualifier": "=", "experimental.value": 470}
{"compound": "Cc1cc(N2C(=O)c3nc(N4CCOCC4)n(C)c3C2c2ccc(Cl)cc2)cn(C)c1=O (stereo not drawn)", "assay.system": "BRD3 (Homo sapiens (Human))", "attribute.measured": "IC50", "qualifier": "=", "experimental.value": 160}
{"compound": "Cc1nnn2c1-c1ccc(C(=O)NS(=O)(=O)c3ccccc3)cc1N(c1ccc(Cl)cc1)CC2", "assay.system": "BRD3 (Homo sapiens (Human))", "attribute.measured": "IC50", "qualifier": "<", "experimental.value": 100}
{"compound": "Cc1nn(-c2ccnn2C)c2c1[C@@H](c1ccc(Cl)cc1)N(c1cc(C)c(=O)n(C)c1)C2=O", "assay.system": "BRD3 (Homo sapiens (Human))", "attribute.measured": "IC50", "qualifier": "=", "experimental.value": 83}
{"compound": "Cc1cc(N2C(=O)c3nc(C4=CCCN(C)C4)n(C(C)C)c3C2c2ccc(Cl)cc2)cn2c(C)nnc12 (stereo not drawn)", "assay.system": "BRD3 (Homo sapiens (Human))", "attribute.measured": "IC50", "qualifier": "=", "experimental.value": 21}
{"compound": "Cc1cc(N2C(=O)c3cc(C4=CCOCC4)n(C)c3C2c2ccc(Cl)cc2)cn2c(C)nnc12 (stereo not drawn)", "assay.system": "BRD3 (Homo sapiens (Human))", "attribute.measured": "IC50", "qualifier": "=", "experimental.value": 47}
